# Test Target: equine FcRn (large alpha subunit p51) / equine beta-2-microglobulin complex, biotinylated (equine) (UniProt P30441)
# Test Name: SPR (Biacore), pH 6
Measure Name: Kd (nM)
Number only, in nM; omit the unit.

Exam item: What value of Kd has been recorded for this entry: equine IgG1 G426D (antibody, part only; not given: variable domains, not shown: another chain or arm of the molecule) constant: ASTTAPKVFALAPGCGTTSDSTVALGCLVSGYFPEPVKVSWNSGSLTSGVHTFPSVLQSSGFYSLSSMVTVPASTWTSETYICNVVHAASNFKVDKRIEPIPDNHQKVCDMSKCPKCPAPELLGGPSVFIFPPNPKDTLMITRTPEVTCVVVDVSQENPDVKFNWYMDGVEVRTATTRPKEEQFNSTYRVVSVLRIQHQDWLSGKEFKCKVNNQALPQPIERTITKTKGRSQEPQVYVLAPHPDELSKSKVSVTCLVKDFYPPEINIEWQSNGQPELETKYSTTQAQQDSDGSYFLYSKLSVDRNRWQQGTTFTCDVMHEALHNHYTQKNVSKNPGK
Marked response: 25.3
